Answer each item with its documented MIC.
# System: Pseudomonas aeruginosa
# experiment.notes: In vitro antibacterial activity against clinical isolates of Pseudomonas aeruginosa 2437 (gram negative) by agar dilution assay.
# Format: functional

Request: Let me know recorded MIC for O=C(O)c1cn2c3c(cc(N4CCN(CCO)CC4)cc3c1=O)SCC2 , thanks.
Response: > 100 µg/mL

Request: Let me know recorded MIC for O=C(O)c1cn2c3c(c(N4CCN(CC(F)(F)F)CC4)c(F)cc3c1=O)SCC2 , thanks.
Response: > 50 µg/mL

Request: Let me know recorded MIC for O=C(O)c1cn2c3c(c(N4CCCC4)c(F)cc3c1=O)[S+]([O-])CC2 (stereo not given) , thanks.
Response: > 50 µg/mL

Request: Let me know recorded MIC for O=C(O)c1cn2c3c(c(Cl)c(N4CCCC4)cc3c1=O)SCC2 , thanks.
Response: > 50 µg/mL

Request: Let me know recorded MIC for O=C(O)c1cn2c3c(c(N4CCCC4)c(F)cc3c1=O)S(=O)(=O)CC2 , thanks.
Response: > 50 µg/mL

###

Answer each item with its documented MIC.
# Tested on: Pseudomonas aeruginosa
# experiment.notes: In vitro antibacterial activity against clinical isolates of Pseudomonas aeruginosa 2437 (gram negative) by agar dilution assay.
# Assay type: functional

Request: Let me know recorded MIC for CN1CCN(c2cc3c4c(c2)c(=O)c(C(=O)O)cn4CCS3)CC1 , thanks.
Response: > 100 µg/mL

Request: Let me know recorded MIC for O=C(O)c1cn2c3c(cc(N4CCCC4)c(Cl)c3c1=O)SCC2 , thanks.
Response: > 100 µg/mL

Request: Let me know recorded MIC for O=C(O)c1cn2c3c(c(N4CCSCC4)c(F)cc3c1=O)SCC2 , thanks.
Response: > 50 µg/mL

Request: Let me know recorded MIC for CCn1cc(C(=O)O)c(=O)c2cnc(N3CCNCC3)nc21 , thanks.
Response: > 25 µg/mL

###

Answer each item with its documented MIC.
# Test system: Morganella morganii
# experiment.notes: In vitro antibacterial activity against clinical isolates of Proteus morganii 27 (gram negative) by agar dilution assay.
# Format: functional

Request: Let me know recorded MIC for O=C(O)c1cn2c3c(cc(F)c(N4CCNCC4)c3c1=O)SCC2 , thanks.
Response: > 100 µg/mL

Request: Let me know recorded MIC for O=C(O)c1cn2c3c(cc(N4CCOCC4)cc3c1=O)SCC2 , thanks.
Response: > 50 µg/mL

Request: Let me know recorded MIC for O=C(O)c1cn2c3c(c(Cl)c(N4CCCC4)cc3c1=O)SCC2 , thanks.
Response: > 50 µg/mL

Request: Let me know recorded MIC for O=C(O)c1cn2c3c(cc(N4CCN(C(=O)C(F)(F)F)CC4)cc3c1=O)SCC2 , thanks.
Response: > 50 µg/mL

Request: Let me know recorded MIC for O=C(O)c1cn2c3c(cc(N4CCCC4)c(Cl)c3c1=O)SCC2 , thanks.
Response: > 100 µg/mL

Request: Let me know recorded MIC for O=C(O)c1cn2c3c(c(N4CCCC4)c(F)cc3c1=O)S(=O)(=O)CC2 , thanks.
Response: > 50 µg/mL

Request: Let me know recorded MIC for O=C(O)c1cn2c3c(cc(N4CCN(Cc5ccccc5)CC4)cc3c1=O)SCC2 , thanks.
Response: > 50 µg/mL

Request: Let me know recorded MIC for O=C(O)c1cn2c3c(c(N4CCN(CC(F)(F)F)CC4)c(F)cc3c1=O)SCC2 , thanks.
Response: > 50 µg/mL

Request: Let me know recorded MIC for O=C(O)c1cn2c3c(cc(N4CCN(CCO)CC4)cc3c1=O)SCC2 , thanks.
Response: > 50 µg/mL

Request: Let me know recorded MIC for O=C(O)c1cn2c3c(ccc(C(F)(F)F)c3c1=O)SCC2 , thanks.
Response: > 50 µg/mL

Request: Let me know recorded MIC for O=C(O)c1cn2c3c(c(Cl)c(F)cc3c1=O)[S+]([O-])CC2 (stereo not drawn) , thanks.
Response: > 100 µg/mL

Request: Let me know recorded MIC for O=C(O)c1cn2c3c(cc(F)c(Cl)c3c1=O)SCC2 , thanks.
Response: > 50 µg/mL

Request: Let me know recorded MIC for O=C(O)c1cn2c3c(c(N4CCCC4)c(F)cc3c1=O)[S+]([O-])CC2 (stereo not drawn) , thanks.
Response: > 50 µg/mL
